Assay: PK protocol, oral administration
Format: in vivo, male Sprague Dawley rats
Conditions: male, Sprague Dawley, rat, plasma, po, dose (mg/kg)
Structures can show the parent of a compound that is named as a salt.
Quantity kind: Cmax (ng/mL)

Compound: CNCc1cc(S(=O)(=O)NC(=O)Nc2c3c(cc4c2CCC4)CCC3)nn1C(C)C
Quantity kind: Cmax
Units: ng/mL
Measured result: 2410

(P) CC(c1cc(S(=O)(=O)NC(=O)Nc2c3c(cc4c2CCC4)CCC3)nn1C)N1CCC1 (stereo not drawn)
(Q) CC(c1cc(S(=O)(=O)NC(=O)Nc2c3c(cc4c2CCC4)CCC3)nn1C)N(C)C (single isomer, unassigned; enantiomer 1)
(R) CC(C)c1cc(Cl)cc(C(C)C)c1NC(=O)NS(=O)(=O)c1cc(CN(C)C)n(C)n1 [Example 93, Sodium Salt]
Sort ascending by Cmax. As an answer, provide the labels arranged in the order called for.
R, P, Q

---

Molecular target: NLRP3 (Homo sapiens, UniProt Q96P20)
Sequence (Q96P20 whole entry): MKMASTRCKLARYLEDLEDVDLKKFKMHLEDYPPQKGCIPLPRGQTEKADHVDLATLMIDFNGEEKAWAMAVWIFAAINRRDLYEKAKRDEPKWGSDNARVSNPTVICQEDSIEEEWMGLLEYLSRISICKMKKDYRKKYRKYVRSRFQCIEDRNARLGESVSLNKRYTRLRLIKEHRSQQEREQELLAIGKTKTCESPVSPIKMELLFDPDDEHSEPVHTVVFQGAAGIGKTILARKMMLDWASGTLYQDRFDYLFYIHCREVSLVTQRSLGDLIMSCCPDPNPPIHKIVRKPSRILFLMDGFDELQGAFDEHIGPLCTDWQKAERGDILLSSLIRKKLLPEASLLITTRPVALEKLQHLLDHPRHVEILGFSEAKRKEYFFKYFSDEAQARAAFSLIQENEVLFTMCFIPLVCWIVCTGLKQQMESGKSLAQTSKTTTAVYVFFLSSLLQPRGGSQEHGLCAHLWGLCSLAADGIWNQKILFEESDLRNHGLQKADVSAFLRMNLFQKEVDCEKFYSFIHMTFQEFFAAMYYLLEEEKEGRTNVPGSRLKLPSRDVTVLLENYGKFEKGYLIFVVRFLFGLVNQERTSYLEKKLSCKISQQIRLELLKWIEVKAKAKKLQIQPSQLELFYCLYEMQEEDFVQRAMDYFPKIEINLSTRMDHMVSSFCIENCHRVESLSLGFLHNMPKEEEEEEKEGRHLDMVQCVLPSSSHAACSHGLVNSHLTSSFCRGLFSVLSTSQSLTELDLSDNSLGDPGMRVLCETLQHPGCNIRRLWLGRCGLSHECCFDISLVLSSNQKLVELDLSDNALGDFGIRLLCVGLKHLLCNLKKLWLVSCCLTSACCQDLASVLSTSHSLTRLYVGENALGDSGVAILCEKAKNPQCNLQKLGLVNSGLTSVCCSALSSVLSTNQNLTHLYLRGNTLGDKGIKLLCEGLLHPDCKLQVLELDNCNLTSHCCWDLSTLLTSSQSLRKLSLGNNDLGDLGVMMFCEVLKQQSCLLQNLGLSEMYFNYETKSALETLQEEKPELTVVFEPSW
Assay: Human whole blood IL1β release assay (LPS + nigericin, AlphaLisa IL-1β)
Format: cell-based
Parameters: Human whole blood in Li-heparin tubes was obtained from healthy donors from a volunteer donor panel; from tissue; host or cells: human whole blood from healthy donors
Conditions: NLRP3 inhibitory activity, 1 μg/ml LPS, 10 μM nigericin, IL-1β release, read-out: HWB IC50
pIC50: −log10 of the molar value. Counter-ions that a name gives are not always drawn.
Quantity kind: pIC50

Example molecules with recorded pIC50:
Molecule: CNCc1cc(S(=O)(=O)NC(=O)Nc2c3c(cc4c2CCC4)CCC3)nn1C(C)C
pIC50: 6.10 to 6.40

Molecule: CCN(CC)Cc1cc(S(=O)(=O)NC(=O)Nc2c(C(C)C)cc(F)cc2C(C)C)nn1C [Example 83, sodium Salt]
pIC50: 6.10 to 6.40

Molecule: COCCN(CCOC)C(=O)c1cc(S(=O)(=O)NC(=O)Nc2c(-c3ccnc(OC)c3)ccc3c2CCC3)nn1C [Example 175, Sodium Salt]
pIC50: > 6.40

Shifting focus to the molecule that follows.
Endpoint output: pIC50 of CN(C)Cc1cc(S(=O)(=O)NC(=O)Nc2c3c(cc4c2CCC4)CCC3)nn1C(C)(C)C . Value?
5.00 to 5.49

---

pIC50 overview
Target: UniProtKB Q96P20
Assay: THP-1 cells pyroptosis assay (LPS + nigericin, resazurin readout)
Type: cell-based
Set-up: Seed THP-1 cells (25,000 cells/well) containing 1.0 μg/ml LPS in 40 μl of RPMI medium; host or cells: THP-1 cells
Details: NLRP3 inhibitory activity, 1.0 μg/ml LPS, 5 μM nigericin
pIC50: −log10 of the molar value. Where a name gives a salt, the structure may show the parent alone.

Compound: COCCN(CCOC)C(=O)c1cc(S(=O)(=O)NC(=O)Nc2c(-c3ccnc(OC(C)C)c3)cc(F)cc2C(C)C)nn1C [Example 174, sodium salt]
Quantity kind: pIC50
Measured result: 5.00 to 5.59
//
Compound: CC(c1cc(S(=O)(=O)[N-]C(=O)Nc2c3c(cc4c2CCC4)CCC3)nn1C)[N+](C)(C)C (stereo not drawn)
Quantity kind: pIC50
Measured result: 5.59 to 6.19
//
Compound: CC(C)c1cc(Cl)cc(C(C)C)c1NC(=O)NS(=O)(=O)c1cc(C(=O)N(C)CC#N)n(C)n1
Quantity kind: pIC50
Measured result: 5.59 to 6.19
//
Compound: Cc1cc(-c2cc(F)cc(C(C)C)c2NC(=O)NS(=O)(=O)c2cc(CN(C)C)n(C)n2)n(C)n1
Quantity kind: pIC50
Measured result: 6.19 to 6.80

Endpoint output: pIC50 of CC(C)c1cc(S(=O)(=O)NC(=O)Nc2c3c(cc4c2CCC4)CCC3)nn1CCN(C)C . Value?
6.19 to 6.80

Endpoint output: pIC50 of CN(C)CCc1cc(S(=O)(=O)NC(=O)Nc2c3c(cc4c2CCC4)CCC3)nn1C . Value?
6.19 to 6.80

Endpoint output: pIC50 of CN(C)Cc1cc(S(=O)(=O)NC(=O)Nc2c3c(cc4c2CCC4)CCC3)nn1C . Value?
> 7.40

Endpoint output: pIC50 of COc1cc(-c2ccc3c(c2NC(=O)NS(=O)(=O)c2cc(C4CCCN4C)n(C(C)C)n2)CCC3)ccn1 (stereo not drawn) . Value?
6.80 to 7.40

Endpoint output: pIC50 of CCC(c1cc(S(=O)(=O)NC(=O)Nc2c3c(cc4c2CCC4)CCC3)nn1C1CC1)N(C)C (stereo not drawn) . Value?
> 7.40

Endpoint output: pIC50 of CC(C)Oc1cc(-c2cc(F)cc(C(C)C)c2NC(=O)NS(=O)(=O)c2cc(C(=O)N(C)C)n(C)n2)ccn1 [Example 176, sodium salt] . Value?
6.19 to 6.80
